Test: Plasma pharmacokinetics of 5-FU in rats after whole pelvic irradiation
Type: in vivo, Sprague-Dawley rats
Conditions: Sprague-Dawley, rat, iv, 100 mg/kg, 5-FU 100 mg/kg i.v., whole pelvic irradiation 0.5 Gy
experimental endpoint: clearance (mL/min/kg)
Numbers only, in mL/min/kg.

Record `O=c1[nH]cc(F)c(=O)[nH]1` . Reported clearance: 25.8

---

Assay: Plasma pharmacokinetics of 5-FU in rats after whole pelvic irradiation
Assay type: in vivo, Sprague-Dawley rats
Conditions: Sprague-Dawley, rat, iv, 100 mg/kg, 5-FU 100 mg/kg i.v., whole pelvic irradiation 0.5 Gy
experimental endpoint: AUC
The reply should read as a number followed by its unit.

Record O=c1[nH]cc(F)c(=O)[nH]1 [5-FU, 5-fluorouracil] . Reported AUC: 64900 ng·h/mL

---

Assay: Bile pharmacokinetics of 5-FU in rats after whole pelvic irradiation
Type: in vivo, Sprague-Dawley rats
Conditions: Sprague-Dawley, rat, iv, 100 mg/kg, 5-FU 100 mg/kg i.v., controls 0 Gy
experimental endpoint: AUC (ng·h/mL)
Give bare numbers, in ng·h/mL.

Record `O=c1[nH]cc(F)c(=O)[nH]1` . Reported AUC: 19700

---

Assay: Bile pharmacokinetics of 5-FU in rats after whole pelvic irradiation
Format: in vivo, Sprague-Dawley rats
Details: Sprague-Dawley, rat, iv, 100 mg/kg, 5-FU 100 mg/kg i.v., whole pelvic irradiation 0.5 Gy, read-out: Vss
experimental endpoint: Vd
The reply should read as a number followed by its unit.

Record `O=c1[nH]cc(F)c(=O)[nH]1` . Reported Vd: 0.753 L/kg

---

Test: Plasma pharmacokinetics of 5-FU in rats after whole pelvic irradiation
Format: in vivo, Sprague-Dawley rats
Conditions: Sprague-Dawley, rat, iv, 100 mg/kg, 5-FU 100 mg/kg i.v., whole pelvic irradiation 2 Gy
experimental endpoint: AUC (µg·h/mL)
One number for each entry, in µg·h/mL.

Record O=c1[nH]cc(F)c(=O)[nH]1 [5-FU, 5-fluorouracil] . Reported AUC: 61.9

---

Assay: Plasma pharmacokinetics of 5-FU in rats after whole pelvic irradiation
Assay type: in vivo, Sprague-Dawley rats
Conditions: Sprague-Dawley, rat, iv, 100 mg/kg, 5-FU 100 mg/kg i.v., controls 0 Gy, read-out: Vss
experimental endpoint: Vd (L/kg)
Give bare numbers, in L/kg.

Record `O=c1[nH]cc(F)c(=O)[nH]1` . Reported Vd: 0.778

---

Assay: Plasma pharmacokinetics of 5-FU in rats with or without MMP-8 inhibitor before whole pelvic irradiation 2 Gy
Format: in vivo, Sprague-Dawley rats
Details: Sprague-Dawley, rat, plasma, iv, 100 mg/kg, plasma, 5-FU 100 mg/kg i.v., whole pelvic irradiation 2 Gy with solvent, read-out: Vss
Protocol: Twenty hours after RT, the rats were administered 100 mg/kg of 5-FU in 2 mL of normal saline by intravenous infusion into the femoral vein over a 2-min period. […] MMP-8 inhibitor I (Calbiochem, La Jolla, CA) was administered to the rats to examine whether or not RT modulation of 5-FU pharmacokinetic parameters could be blocked. […] After RT sham RT 20 hrs, all rats received 5-FU (100 mg/kg) injections and the pharmacokinetic parameters of 5-FU were analyzed. […]
experimental endpoint: Vd (L/kg)
Numbers only, in L/kg.

Record `O=c1[nH]cc(F)c(=O)[nH]1` . Reported Vd: 0.784

The origin of these recorded values is paper PMC3111455.
